Listed here: items and their measured pEC50.
Target: UniProt Q9NYK1
Sequence (Q9NYK1 whole entry): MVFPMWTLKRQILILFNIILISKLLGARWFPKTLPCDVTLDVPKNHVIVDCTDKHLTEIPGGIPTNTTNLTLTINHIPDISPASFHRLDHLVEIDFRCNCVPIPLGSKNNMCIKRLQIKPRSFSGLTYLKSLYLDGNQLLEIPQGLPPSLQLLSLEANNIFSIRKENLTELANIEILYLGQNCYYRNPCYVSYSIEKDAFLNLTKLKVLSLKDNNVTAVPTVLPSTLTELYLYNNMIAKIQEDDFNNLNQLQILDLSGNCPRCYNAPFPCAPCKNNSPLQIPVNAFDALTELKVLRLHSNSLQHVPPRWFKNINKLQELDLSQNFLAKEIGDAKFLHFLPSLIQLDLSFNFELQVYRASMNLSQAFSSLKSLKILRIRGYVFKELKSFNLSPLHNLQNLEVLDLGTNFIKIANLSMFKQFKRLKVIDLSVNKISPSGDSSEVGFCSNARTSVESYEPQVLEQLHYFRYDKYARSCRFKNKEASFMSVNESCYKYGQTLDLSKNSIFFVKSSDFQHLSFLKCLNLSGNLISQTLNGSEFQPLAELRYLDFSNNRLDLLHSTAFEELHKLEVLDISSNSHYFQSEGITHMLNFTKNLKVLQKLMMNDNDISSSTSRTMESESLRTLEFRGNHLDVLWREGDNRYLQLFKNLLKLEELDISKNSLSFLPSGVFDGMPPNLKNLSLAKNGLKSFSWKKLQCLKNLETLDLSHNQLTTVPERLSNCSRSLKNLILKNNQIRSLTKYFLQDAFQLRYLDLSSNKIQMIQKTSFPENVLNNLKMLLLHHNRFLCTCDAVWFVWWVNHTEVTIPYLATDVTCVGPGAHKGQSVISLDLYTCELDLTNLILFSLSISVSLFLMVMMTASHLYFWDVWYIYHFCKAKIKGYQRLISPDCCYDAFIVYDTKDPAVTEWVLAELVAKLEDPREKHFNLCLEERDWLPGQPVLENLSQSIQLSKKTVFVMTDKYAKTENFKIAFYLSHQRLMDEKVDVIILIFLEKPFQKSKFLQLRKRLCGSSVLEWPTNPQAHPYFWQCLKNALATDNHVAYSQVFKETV
Test: Agonist activity at human TLR7 expressed in HEK-blue TLR cells measured for 18 to 19 hrs by SEAP reporter gene based assay
Type: cell-based
pEC50: −log10 of the molar value.
endpoint-name: pEC50

- cpd-smiles: "CCCCNc1nc(N)nc2ncn(Cc3ccc(CN(CC)CC)cc3OC)c12"
  target-under-test: "UniProt Q9NYK1"
  measured: 7.76
- cpd-smiles: "CCCCNc1nc(N)nc2ncn(Cc3ccc(CN4CCNCC4)cc3OC)c12"
  target-under-test: "UniProt Q9NYK1"
  measured: 6.77
- cpd-smiles: "CCCCNc1nc(N)nc2ncn(Cc3ccc(CN4CCN(C)CC4)cc3OC)c12"
  target-under-test: "UniProt Q9NYK1"
  measured: 7.61
- cpd-smiles: "CCCCNc1nc(N)nc2ncn(Cc3ccc(CN4CCCCC4)cc3OC)c12"
  target-under-test: "UniProt Q9NYK1"
  measured: 7.69
- cpd-smiles: "COc1cc(CO)ccc1Cn1cnc2nc(N)nc(NCc3ccccc3)c21"
  target-under-test: "UniProt Q9NYK1"
  measured: 5.55
- cpd-smiles: "CCCCNc1nc(N)nc2ncn(Cc3ccc(CN(C)C)cc3OC)c12"
  target-under-test: "UniProt Q9NYK1"
  measured: 7.53
